System: 422866-222-R5-J1-PDC complex spheroids viability
Experiment: Anticancer human tumor 422866-222-R5-J1-PDC patient-derived pancreatic adenocarcinoma cell line growth inhibition [RAS]
Conditions: second compound 0.003 µM; first compound 1 µM; stronger effect = lower value
quantity-name: viability, T/C (%)
# unit: % | format: bare number

input: What viability, T/C value was documented for this compound, Cc1nc(N2CCC3(CC2)COC(C)C3N)c(CO)nc1Sc1ccnc(N)c1Cl (centres undefined) + CCn1c(-c2cccnc2C(C)OC)c2c3cc(ccc31)N1CCOC(CC(NC(=O)C(C(C)C)N(C)C(=O)C3(F)CCN(C(=O)C#CC(C)(C)N(C)C)CC3)C(=O)N3CCCC(N3)C(=O)OCC(C)(C)C2)C1 ?
output: 17.9

input: Record request: viability, T/C value, item NC1c2ccccc2OC12CCN(c1cnc3c(N4CCCc5ncccc54)n[nH]c3n1)CC2 (centres undefined) + CCn1c(-c2cc(N3CCN(C)CC3)cnc2C(C)OC)c2c3cc(ccc31)-c1csc(n1)CC(NC(=O)C1CC1C)C(=O)N1CCCC(N1)C(=O)OCC(C)(C)C2
output: 16.3

input: Please report the recorded viability, T/C for C[C@@H](NC(=O)c1ncnc(N)c1Cl)c1ncc(C(=O)Nc2cc(C(F)(F)F)c(Cl)cn2)s1 + CCn1c(-c2cc(N3CCN(C)CC3)cnc2C(C)OC)c2c3cc(ccc31)-c1csc(n1)CC(NC(=O)C1CC1C)C(=O)N1CCCC(N1)C(=O)OCC(C)(C)C2 .
output: 25.8

input: Query: viability, T/C; subject: CCC(CC)c1cc(NC2CCC(N)C2)n2nccc2n1 (centres undefined) + CCn1c(-c2cccnc2C(C)OC)c2c3cc(ccc31)N1CCOC(CC(NC(=O)C(C(C)C)N(C)C(=O)C3(F)CCN(C(=O)C#CC(C)(C)N(C)C)CC3)C(=O)N3CCCC(N3)C(=O)OCC(C)(C)C2)C1
output: 28.2

* * *

Tested on: 422866-222-R5-J1-PDC complex spheroids viability
Assay: Anticancer human tumor 422866-222-R5-J1-PDC cell line growth inhibition [RAS];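 also: spheroids exposed to compounds for 7 days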
Details: curve of first compound; second compound 0.003 µM
Source text: RAS pathway inhibitors in Combinations in Complex Spheroids A high-throughput screen of multi-cell type tumor spheroids was designed to identify active combinations of RAS pathway inhibitors and targeted small molecules. Complex spheroids include a stromal component modeled by human endothelial cells (HUVEC) and fibroblasts modeled by human mesenchymal stem cells (MSCs). […] Compounds. […] If the clinical Cmax for an agent had not been determined, the highest concentration tested was 10 microM. […]
pIC50: −log10 of the molar value.
quantity-name: pIC50

input: Observed pIC50 on 422866-222-R5-J1-PDC complex spheroids viability for CC1(C)CCC(Nc2ncc(C(F)(F)F)c(-c3c[nH]c4c(P(C)(C)=O)c(C#N)ccc34)n2)CN1 (centres undefined) + CCn1c(-c2cccnc2C(C)OC)c2c3cc(ccc31)N1CCOC(CC(NC(=O)C(C(C)C)N(C)C(=O)C3(F)CCN(C(=O)C#CC(C)(C)N(C)C)CC3)C(=O)N3CCCC(N3)C(=O)OCC(C)(C)C2)C1 , please.
output: > 9.02

input: Field: pIC50 (422866-222-R5-J1-PDC complex spheroids viability). Entry: C=CC(=O)Nc1cc(Nc2nccc(-c3cn(C)c4ccccc34)n2)c(OC)cc1N(C)CCN(C)C + CCn1c(-c2cc(N3CCN(C)CC3)cnc2C(C)OC)c2c3cc(ccc31)-c1csc(n1)CC(NC(=O)C1CC1C)C(=O)N1CCCC(N1)C(=O)OCC(C)(C)C2
output: > 8.50

input: GET /values?readout=pIC50&system=422866-222-R5-J1-PDC complex spheroids viability&item= Nc1ccn(C2OC(CO)C(O)C2(F)F)c(=O)n1 (centres undefined) + CCn1c(-c2cccnc2C(C)OC)c2c3cc(ccc31)N1CCOC(CC(NC(=O)C(C(C)C)N(C)C(=O)C3(F)CCN(C(=O)C#CC(C)(C)N(C)C)CC3)C(=O)N3CCCC(N3)C(=O)OCC(C)(C)C2)C1
output: > 8.50

input: I'm curious: which pIC50 was measured for C=CC(=O)N1CCN(c2nc(OCC3CCCN3C)nc3c(F)c(-c4nc(N)cc(C)c4C(F)(F)F)c(Cl)cc23)C(C)C1 (centres undefined) + CCn1c(-c2cc(N3CCN(C)CC3)cnc2C(C)OC)c2c3cc(ccc31)-c1csc(n1)CC(NC(=O)C1CC1C)C(=O)N1CCCC(N1)C(=O)OCC(C)(C)C2 tested on 422866-222-R5-J1-PDC complex spheroids viability?
output: > 8.50

* * *

Test system: 422866-222-R5-J1-PDC complex spheroids viability
Test: Anticancer human tumor 422866-222-R5-J1-PDC cell line growth inhibition [RAS];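 also: spheroids exposed to compounds for 7 days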;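 as to viability, T/C: 100% = DMSO vehicle control viability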
Details: second compound 0.003 µM; first compound 0.0316 µM; stronger effect = lower value
quantity-name: viability, T/C (%)
Provide only the numeric value, understood in %.

input: Record request: viability, T/C value, item CC(=O)OC12COC1CC(O)C1(C)C(=O)C(O)C3=C(C)C(OC(=O)C(O)C(NC(=O)OC(C)(C)C)c4ccccc4)CC(O)(C(OC(=O)c4ccccc4)C21)C3(C)C (centres undefined) + CCn1c(-c2cc(N3CCN(C)CC3)cnc2C(C)OC)c2c3cc(ccc31)-c1csc(n1)CC(NC(=O)C1CC1C)C(=O)N1CCCC(N1)C(=O)OCC(C)(C)C2
output: 18.8

input: Reported viability, T/C for C[C@@H](NC(=O)c1ncnc(N)c1Cl)c1ncc(C(=O)Nc2cc(C(F)(F)F)c(Cl)cn2)s1 + CCn1c(-c2cc(N3CCN(C)CC3)cnc2C(C)OC)c2c3cc(ccc31)-c1csc(n1)CC(NC(=O)C1CC1C)C(=O)N1CCCC(N1)C(=O)OCC(C)(C)C2 : what is it?
output: 24.8

input: Look at this molecule and give its reported viability, T/C. CC1(O)CCCC1n1c(=O)c(C(F)F)cc2cnc(NC3CCN(S(C)(=O)=O)CC3)nc21 (centres undefined) + CCn1c(-c2cc(N3CCN(C)CC3)cnc2C(C)OC)c2c3cc(ccc31)-c1csc(n1)CC(NC(=O)C1CC1C)C(=O)N1CCCC(N1)C(=O)OCC(C)(C)C2
output: 27.9

input: Any idea what its viability, T/C is? The molecule is CC(=O)OC12COC1CC(O)C1(C)C(=O)C(O)C3=C(C)C(OC(=O)C(O)C(NC(=O)OC(C)(C)C)c4ccccc4)CC(O)(C(OC(=O)c4ccccc4)C21)C3(C)C (centres undefined) + CCn1c(-c2cccnc2C(C)OC)c2c3cc(ccc31)N1CCOC(CC(NC(=O)C(C(C)C)N(C)C(=O)C3(F)CCN(C(=O)C#CC(C)(C)N(C)C)CC3)C(=O)N3CCCC(N3)C(=O)OCC(C)(C)C2)C1
output: 19.9

* * *

System: 422866-222-R5-J1-PDC complex spheroids viability
Test: Anticancer human tumor 422866-222-R5-J1-PDC cell line growth inhibition [RAS];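 also: spheroids exposed to compounds for 7 days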;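 as to viability, T/C: 100% = DMSO vehicle control viability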
Details: second compound 0.00949 µM; first compound 0.03 µM; stronger effect = lower value
Description: RAS pathway inhibitors in Combinations in Complex Spheroids A high-throughput screen of multi-cell type tumor spheroids was designed to identify active combinations of RAS pathway inhibitors and targeted small molecules. Complex spheroids include a stromal component modeled by human endothelial cells (HUVEC) and fibroblasts modeled by human mesenchymal stem cells (MSCs). […] Compounds. […] If the clinical Cmax for an agent had not been determined, the highest concentration tested was 10 microM. […]
quantity-name: viability, T/C (%)
Entry rule: numbers only, all in %.

input: Please look up its viability, T/C: CC1(C)CCC(Nc2ncc(C(F)(F)F)c(-c3c[nH]c4c(P(C)(C)=O)c(C#N)ccc34)n2)CN1 (centres undefined) + CCn1c(-c2cc(N3CCN(C)CC3)cnc2C(C)OC)c2c3cc(ccc31)-c1csc(n1)CC(NC(=O)C1CC1C)C(=O)N1CCCC(N1)C(=O)OCC(C)(C)C2
output: 21.6

input: Which viability, T/C reading was recorded for the compound CC1(C)CCC(Nc2ncc(C(F)(F)F)c(-c3c[nH]c4c(P(C)(C)=O)c(C#N)ccc34)n2)CN1 (centres undefined) + CCn1c(-c2cccnc2C(C)OC)c2c3cc(ccc31)N1CCOC(CC(NC(=O)C(C(C)C)N(C)C(=O)C3(F)CCN(C(=O)C#CC(C)(C)N(C)C)CC3)C(=O)N3CCCC(N3)C(=O)OCC(C)(C)C2)C1 ?
output: 26.2

input: Fill blank: measured viability, T/C of the compound CCc1c2c(nc3ccc(O)cc13)-c1cc3c(c(=O)n1C2)COC(=O)[C@]3(O)CC + CCn1c(-c2cccnc2C(C)OC)c2c3cc(ccc31)N1CCOC(CC(NC(=O)C(C(C)C)N(C)C(=O)C3(F)CCN(C(=O)C#CC(C)(C)N(C)C)CC3)C(=O)N3CCCC(N3)C(=O)OCC(C)(C)C2)C1 is ____.
output: 15

input: Given the compound CCc1c2c(nc3ccc(O)cc13)-c1cc3c(c(=O)n1C2)COC(=O)[C@]3(O)CC + CCn1c(-c2cc(N3CCN(C)CC3)cnc2C(C)OC)c2c3cc(ccc31)-c1csc(n1)CC(NC(=O)C1CC1C)C(=O)N1CCCC(N1)C(=O)OCC(C)(C)C2 , what is its reported viability, T/C?
output: 13.2
